Consider the following molecules; for each one, report its selectivity ratio.
Experiment Description: Selectivity index, ratio of GI50 for human PANC1 cells to MIC90 for dormant Mycobacterium bovis BCG ATCC 35734
Format: toxicity
Cond: PANC-1 cells, read-out: Selectivity Index

Reported selectivity ratio for O=C(CC(=O)c1cc(Cl)cc(Cl)c1O)c1cc2ccccc2s1 was > 10

Reported selectivity ratio for Cc1ccc(O)c(C(=O)CC(=O)c2cc3ccccc3s2)c1 was > 10

Reported selectivity ratio for Cc1ccc2oc(-c3cc4ccccc4s3)cc(=O)c2c1 was > 20

Reported selectivity ratio for O=C(CC(=O)c1cc(Br)ccc1O)c1cc2ccccc2s1 was > 10

---

Tested on: PANC-1
Experiment Description: Cytotoxicity against human PANC1 cells assessed as growth inhibition after 90 hrs by MTT assay
Type: cell-based
Cond: panc-1, 90 h
Consider the following compounds; for each one, report its GI90.

Reported GI90 for CC(=O)O[C@H]1C(=O)[C@@]2(C)[C@H]([C@H](OC(=O)c3ccccc3)[C@]3(O)C[C@H](OC(=O)[C@H](O)[C@@H](NC(=O)c4ccccc4)c4ccccc4)C(C)=C1C3(C)C)[C@]1(OC(C)=O)CO[C@@H]1C[C@@H]2O [PACLITAXEL] was 5.715 µg/mL

Reported GI90 for Cc1ccc(O)c(C(=O)CC(=O)c2cc3ccccc3s2)c1 was > 30 µg/mL

Reported GI90 for Cc1cc(O)c(C(=O)CC(=O)c2cc3ccccc3s2)cc1Cl was > 30 µg/mL

Reported GI90 for O=C(CC(=O)c1cc(Br)ccc1O)c1cc2ccccc2s1 was > 30 µg/mL

Reported GI90 for Cc1ccc2oc(-c3cc4ccccc4s3)cc(=O)c2c1 was 29.75 µg/mL

Reported GI90 for O=C(CC(=O)c1cc(Cl)cc(Cl)c1O)c1cc2ccccc2s1 was > 30 µg/mL

Reported GI90 for Cc1cc2oc(-c3cc4ccccc4s3)cc(=O)c2cc1Cl was > 100 µg/mL

Reported GI90 for O=C(CC(=O)c1ccccc1O)c1cc2ccccc2s1 was > 30 µg/mL

Reported GI90 for O=C(CC(=O)c1cc(Cl)ccc1O)c1cc2ccccc2s1 was 26.03 µg/mL

Reported GI90 for Cc1ccc(C(=O)CC(=O)c2cc3ccccc3s2)c(O)c1 was > 30 µg/mL
